Origin of measurements: patent US10597388B2

Tested on: oat, wild (wild oat, Avena fatua)
measurement-protocol: Test C greenhouse herbicide test, postemergence
Assay type: in vivo
applied-conditions: postemergence, 62 g ai/ha; scale 0 to 100, 0 no effect, 100 complete control
Provide the recorded Oat, Wild plant response rating for the entries that follow.

query: What value of measured Oat, Wild plant response rating is listed for Cc1cc(C)c2ccccc2c1-c1c(O)cnn(C)c1=O [Compound 51] ?
result: 5

query: Input CC(=O)Oc1c(C)nn(C)c(=O)c1-c1c(C)oc2ccc(C)cc12 [Compound 14]
result: 30

query: Same again, this time with COc1nn(C)c(=O)c(-c2c(C)sc3ccccc23)c1O [Compound 33]
result: 30

query: Now try COc1ccc2ccccc2c1-c1c(O)c(C)nn(C)c1=O [Compound 40] .
result: 50

query: Please give the result for CC(=O)Oc1c(C#N)nn(C)c(=O)c1-c1c(C)ccc2ccccc12 [Compound 98] too.
result: 80

query: Query CCOC(=O)Oc1c(C)nn(C)c(=O)c1-c1c(C)sc2c(C)cc(C)cc12 [Compound 83] next
result: 90

query: Proceed to CCC(=O)Oc1c(C)nn(C)c(=O)c1-c1c(C)sc2c(C)cc(C)cc12 [Compound 28]
result: 95

query: Proceed to Cc1nn(C)c(=O)c(-c2c(C)sc3ccccc23)c1O [Compound 65]
result: 35
